B1: HDV Ribozyme (parent)
chain: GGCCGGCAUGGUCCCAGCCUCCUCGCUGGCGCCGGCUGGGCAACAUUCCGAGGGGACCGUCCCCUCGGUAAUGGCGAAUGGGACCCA

Variants of: B1
Assay: self-cleavage, relative activity (ratio to wild type); higher = more cleavage; co-transcriptional
self-cleavage values by entry
value-type: self-cleavage

variant_key="C32A A56C" value_type=self-cleavage reported_result=0.293
variant_key=C19G value_type=self-cleavage reported_result=0.0688
variant_key="U69C A78C" value_type=self-cleavage reported_result=0.322
variant_key="U65G C86A" value_type=self-cleavage reported_result=0.988
variant_key="A51U C64G" value_type=self-cleavage reported_result=0.578
variant_key="A16G G38A" value_type=self-cleavage reported_result=0.213
variant_key="G28A G59U" value_type=self-cleavage reported_result=0.117
variant_key="C48G G52U" value_type=self-cleavage reported_result=0.612
variant_key="G40A C48G" value_type=self-cleavage reported_result=1.06
variant_key="C62G C66G" value_type=self-cleavage reported_result=0.249
variant_key="C26G U79C" value_type=self-cleavage reported_result=0.458
variant_key="U27A G38A" value_type=self-cleavage reported_result=0
variant_key="U47G C66U" value_type=self-cleavage reported_result=1.23
variant_key="C21A C58A" value_type=self-cleavage reported_result=0.104
variant_key="A8C U65C" value_type=self-cleavage reported_result=0.684
variant_key="G29C A70C" value_type=self-cleavage reported_result=0.0536
variant_key="C41G C66A" value_type=self-cleavage reported_result=0.96
variant_key="U65C G73C" value_type=self-cleavage reported_result=0.283
variant_key="G38U G81U" value_type=self-cleavage reported_result=0.0545
variant_key="U47C G73U" value_type=self-cleavage reported_result=0.225
variant_key="U27G G28U" value_type=self-cleavage reported_result=0.612
variant_key="U20G A78C" value_type=self-cleavage reported_result=0.249
